FYI, the data here is from patent US11214803B2.

- Tested on: Yap1 mRNA
- protocol_text: Antisense inhibition of human Yap1 in A-431 cells by cEt gapmers, single dose (Example 3, RTS36584)
- Assay type: cell-based
- condition_info: Table 26; Yap1 mRNA by 3-10-3 cEt gapmers targeting SEQ ID NO.: 1, and 2; percent of untreated control
Strand notation (5' to 3'): a small letter for the sugar, then the base; units joined by * are phosphorothioate-linked, units joined directly phosphodiester-linked; [ ] holds rarer units or linkages, { } end groups; capitals alone tell only the bases. k = constrained ethyl (cEt); [5mC] = 5-methylcytosine; d = 2'-deoxy (DNA)
Mark 1 (yes) for reported YAP1 (% UTC) of 9 % UTC or greater; mark 0 (no) for anything smaller.

Q: Please check the record 958499 (ATTAGAGTATGTGGCA; 3-10-3 cEt gapmer, further chemistry not given here) [compound 958499] and state if its YAP1 (% UTC) is at or above 9 % UTC.
Ans: 0 (no)

Q: Please check the record 1074668 (antisense kT*k[5mC]*k[5mC]*d[5mC]*dA*dA*d[5mC]*dA*dA*d[5mC]*dA*dT*dG*k[5mC]*kT*kA) [compound 1074668] and state if its YAP1 (% UTC) is at or above 9 % UTC.
Ans: 1 (yes)

Q: Please check the record 1075052 (antisense kA*kT*kA*dT*dA*dT*dA*d[5mC]*dT*dT*dG*dA*dT*k[5mC]*k[5mC]*kA) [compound 1075052] and state if its YAP1 (% UTC) is at or above 9 % UTC.
Ans: 0 (no)

Q: Please check the record 1074924 (antisense k[5mC]*k[5mC]*kT*dG*d[5mC]*dA*dA*dA*dT*dA*dG*dG*dA*kG*kA*kG) [compound 1074924] and state if its YAP1 (% UTC) is at or above 9 % UTC.
Ans: 1 (yes)

Q: Please check the record 1075884 (antisense kA*kT*kT*dA*dG*dT*dA*dA*dT*dG*dA*d[5mC]*dT*kA*kA*k[5mC]) [compound 1075884] and state if its YAP1 (% UTC) is at or above 9 % UTC.
Ans: 1 (yes)

----------
- System: Yap1 mRNA
- protocol_text: Dose-dependent inhibition of human Yap1 in A-431 cells (Example 8, 10,000 cells per well, RTS4814)
- Format: cell-based
- condition_info: 31.3 nM; A-431 cells, 10,000 cells per well, free uptake, approximately 48 hours, RTS4814
Strand notation (5' to 3'): a small letter for the sugar, then the base; units joined by * are phosphorothioate-linked, units joined directly phosphodiester-linked; [ ] holds rarer units or linkages, { } end groups; capitals alone tell only the bases. k = constrained ethyl (cEt); [5mC] = 5-methylcytosine; d = 2'-deoxy (DNA)
Mark Condition met for reported Yap1 mRNA, % UTC of 70 % UTC or greater; mark Condition not met for anything smaller.

Below are worked cases with known answers.
- substance: "1074480 (kT*k[5mC]*kA*dT*dT*dT*dG*d[5mC]*d[5mC]*dT*dA*dG*dG*kT*kT*k[5mC]; antisense) [compound 1074480]"
  category: "Condition not met"
- substance: "1076114 (kA*kT*kT*dA*dG*dT*dA*dA*dG*d[5mC]*dT*dG*dA*kG*kG*kA; antisense) [compound 1076114]"
  category: "Condition not met"
- substance: "1076004 (kT*kA*kA*dT*dT*dT*dA*dA*dT*dG*dG*d[5mC]*dT*kT*kG*k[5mC]; antisense) [compound 1076004]"
  category: "Condition not met"
- substance: "1075146 (kG*kT*kA*dT*dT*dA*dA*dG*dG*dG*dA*dT*dT*kT*kT*k[5mC]; antisense) [compound 1075146]"
  category: "Condition not met"

Q: Please check the record 1076427 (k[5mC]*kA*kA*dA*dT*dT*dT*dA*d[5mC]*dT*dG*dA*dT*k[5mC]*kT*k[5mC]; antisense) [compound 1076427] and state if its Yap1 mRNA, % UTC is at or above 70 % UTC.
Ans: Condition met

----------
- protocol_text: Cynomolgus monkey tolerability, kidney and liver function markers (Example 34)
- condition_info: cynomolgus monkeys, 35 mg/kg subcutaneously, day 44
For each of the substances below, state its GLO.
Give bare numbers, in g/dL.

- substance: "1197270 (TTAAAGTGTATGTCAG; cEt gapmer with 2'-OMe nucleoside, phosphorothioate, further chemistry not given here) [compound 1197270]"
  GLO, g/dL: 3.1

Dear reader, for each entry below, please note its GLO.
1. 1198440 (AAGTGTATGTCAGAAG; cEt, 2'-MOE, 5-methylcytosine, phosphorothioate modifications, further chemistry not given here) [compound 1198440]
2. 1198728 (TATTAGAGTATGTGGC; modified gapmer, further chemistry not given here) [compound 1198728]
3. 1198439 (AGTGTATGTCAGAAGA; sugar, 5-methylcytosine, phosphorothioate modifications, further chemistry not given here) [compound 1198439]

Ans:
1: 2.9; 2: 3.2; 3: 2.8

----------
- Tested on: Yap1 mRNA
- protocol_text: Dose-dependent inhibition of human Yap1 in A-431 cells (Example 8, 10,000 cells per well, RTS4814)
- Assay type: cell-based
- condition_info: 31.3 nM; A-431 cells
Strand notation (5' to 3'): a small letter for the sugar, then the base; units joined by * are phosphorothioate-linked, units joined directly phosphodiester-linked; [ ] holds rarer units or linkages, { } end groups; capitals alone tell only the bases. k = constrained ethyl (cEt); [5mC] = 5-methylcytosine; d = 2'-deoxy (DNA)
Mark t for reported % UTC (Yap1 mRNA) of 60 % UTC or greater; mark f for anything smaller.

Below are worked cases with known answers.
- substance: "1074487 (kA*kG*kA*dT*dT*d[5mC]*dA*d[5mC]*dT*dA*dA*dT*dA*kT*kG*kG; antisense) [compound 1074487]"
  category: "t"
- substance: "1074775 (kG*kG*kT*dT*dT*dA*dT*dT*dG*dT*dA*dA*dA*kA*kG*k[5mC]; antisense) [compound 1074775]"
  category: "f"
- substance: "1075797 (kG*kA*kT*dA*dA*dT*d[5mC]*dA*dT*dG*dA*dT*dA*k[5mC]*kT*k[5mC]; antisense) [compound 1075797]"
  category: "f"
- substance: "1075990 (k[5mC]*kG*kT*dT*dA*dT*dT*dA*dT*dG*d[5mC]*dA*dG*k[5mC]*kA*kA; antisense) [compound 1075990]"
  category: "f"

Q: Please check the record 1076340 (antisense kT*kA*kA*dT*dA*dT*d[5mC]*d[5mC]*dT*d[5mC]*dA*dT*d[5mC]*kA*kG*k[5mC]) [compound 1076340] and state if its % UTC (Yap1 mRNA) is at or above 60 % UTC.
Ans: t

----------
- protocol_text: Tolerability in CD-1 mice, body and organ weights (Example 18)
- Type: in vivo
- condition_info: male CD-1 mice, 50 mg/kg s.c. twice a week (total of 9 treatments), end of study (day 34)
Strand notation (5' to 3'): a small letter for the sugar, then the base; units joined by * are phosphorothioate-linked, units joined directly phosphodiester-linked; [ ] holds rarer units or linkages, { } end groups; capitals alone tell only the bases. k = constrained ethyl (cEt); [5mC] = 5-methylcytosine; d = 2'-deoxy (DNA)
For each of the substances below, state its Kidney weight.
Numbers only, in g.

Use these answered entries as a reference point.
- substance: "1076481 (k[5mC]*kT*kA*dA*dG*dT*dA*dA*dG*dG*dT*dT*dT*k[5mC]*k[5mC]*k[5mC]) [compound 1076481]"
  property: "Kidney weight"
  value: 0.57
- substance: "958499 (ATTAGAGTATGTGGCA; 3-10-3 cEt gapmer, further chemistry not given here) [compound 958499]"
  property: "Kidney weight"
  value: 0.57
- substance: "1076453 (GTAATATTGCAATCTG; 3-10-3 cEt gapmer, further chemistry not given here) [compound 1076453]"
  property: "Kidney weight"
  value: 0.56

// switching to the query substance
Record summary for 1074755 (k[5mC]*kA*k[5mC]*dT*dT*dT*dT*dA*d[5mC]*dA*dT*dT*dA*kG*kG*kA; antisense) [compound 1074755] : reported Kidney weight = 0.61

----------
- System: Yap1 mRNA
- protocol_text: Yap1 mRNA in SCC25 cells, RNA analysis (Example 25)
- Type: cell-based, human
- condition_info: 5 μM, free uptake, 48 hours, RTS4814, normalized to actin-beta
- Procedure: Modified oligonucleotides described in the studies above were tested at various doses in squamous cell carcinoma cell SCC25. […] Cultured SCC25 cells at a density of 5,000 cells per well were treated using free uptake with modified oligonucleotides diluted to concentrations described in the tables below. After approximately 48 hours, Yap1 mRNA levels were measured as previously described using the Human Yap1 primer-probe set RTS4814. […]
Entries whose Yap1 mRNA, % UTC is below 7 % UTC take T; entries at or above 7 % UTC take F.

- substance: "1198623 (CTAAGTAAGGTTTCCC; modified gapmer, further chemistry not given here) [compound 1198623]"
  category: "F"
- substance: "1198831 (CACTTTTACATTAGGA; chemically modified gapmer, further chemistry not given here) [compound 1198831]"
  category: "F"
- substance: "1198440 (AAGTGTATGTCAGAAG; cEt, 2'-MOE, 5-methylcytosine, phosphorothioate modifications, further chemistry not given here) [compound 1198440]"
  category: "T"
- substance: "1076453 (GTAATATTGCAATCTG; 3-10-3 cEt gapmer, further chemistry not given here) [compound 1076453]"
  category: "T"

Turning to the following substance.
Q: Determine if 1198605 (GTAATATTGCAATCTG; modified gapmer, further chemistry not given here) [compound 1198605] shows Yap1 mRNA, % UTC strictly lower than 7 % UTC.
Ans: T
